- tested_system: T1, M5-1
- T1 construct: also called PD1 mutant M5-1
- protocol_description: ELISA, 1 ug/ml
reported_property: OD490

Using the record for PD1-45D6 (antibody, V domains shown, scFv-phage in the screening ELISA; whole IgG in the other assays) VH: QVQLVESGGGVVQPGRSLRLSCAASGFTFSSYAMHWVRQVPGKGLEWVAVISYDGNDKYYADSVKGRFTISRDNSKNTLYLQMNSLRAEDTAVYYCVPTTFEYWGQGSQVTVSS VL: DIVMTQTPLSLPVTPGEAASISCRSSQSLLDSDDGKTYLDWYLQKPGQSPQLLIYTLSYRASGVPDRFSGSGSGTEFNLRISRVEAEDVGIYYCMQRVEFPFTFGQGTKLDIK , report its OD490.
3.8

Looking for the measured OD490 of PD1-49A2 (antibody, V domains shown, scFv-phage in the screening ELISA; whole IgG in the other assays; also called Parent 49A2) VH: QVQLVESGGGVVQPGRSLRLSCAASGFTFSSYAMHWVRQAPGKGLEWVAVISYDGSNKYYADSVKGRFTISRDNPKNTLYLQMNSLRAEDTAVYYCTTTTFDSWGRGTLVTVSS VL: DIVMTQSPLSLPVTPGEPASISCRSSQSLFDSDDGNTYLDWYLQKPGQSPQLLIYTLSHRASGVPDRFSGSGSGTDFTLKISRVEAEDVGIYYCLQRMGFPYTFGQGTKVEIK , can you help?
0.7

Which OD490 value belongs to PD1-52E8 (antibody, V domains shown, scFv-phage in the screening ELISA; whole IgG in the other assays) VH: QVQLVQSGGNLVQPGRSLRLSCAASGFTFDDYAMHWVRQAPGKGLEWVSGISWNSGTPGYADSVQGRFTISRDNAKNSLYLQMNSLRAEDTAVYYCARGHNYLDSSYYDYWGQGTLVTVSS VL: SYELTQPLSLSVAPGQTARITCSGDALSKEYSYWYQQKPGQAPVLVMYKDSERPSGIPERFSGSSSGTTVTLTISGVQAEDEADYYCQSVDSSDTSVVFGGGTKLTVL ?
0.3

Report OD490 for PD1-41C9 (antibody, V domains shown, scFv-phage in the screening ELISA; whole IgG in the other assays) VH: QMQLVESGGGVVQPGRSLRLSCAASGFTFSSYAMHWVRQAPGKGLEWVAVISYDGSNKYYADSVKGRFTISRDNSKNTLYLQMNRLRSEDTAVYYCTTTTFDSWGQGTLITVSS VL: DIVMTQTPLSLPVTPGEAASISCRSSQSLLDSEDGNTYLDWYLQKPGQSPQLLIYTLSHRASGVPDRFSGSGSGTDFTLKISRVAAEDVGLYYCLQRMGFPYTFGQGTKLDIK please.
2.8
